- System: Staphylococcus aureus (No. 420)
- assay overview: In vitro anti-bacterial activity (MIC90), methicillin-resistant Staphylococcus aureus isolates
- Format: cell-based
- conditions used: methicillin-resistant Staphylococcus aureus (No. 420)
Let's look at some molecules and their measured MIC90.
# output: bare number, implied unit µg/mL

molecule: NC1CCCCN(c2c(F)cc3c(=O)c(C(=O)O)cn(C4CC4)c3c2Cl)C1 (stereo not shown) [Compound Having Formula III]
property label: MIC90
units of measure: µg/mL
numeric readout: 0.1

molecule: CC1COc2c(N3CCN(C)CC3)c(F)cc3c(=O)c(C(=O)O)cn1c23 (stereo not shown) [Ofloxacin]
property label: MIC90
units of measure: µg/mL
numeric readout: 1.56

molecule: CC1CCc2c(N3CCC(O)CC3)c(F)cc3c(=O)c(C(=O)O)cn1c23 (stereo not shown) [Nadifloxacin]
property label: MIC90
units of measure: µg/mL
numeric readout: 0.78

Please report the recorded MIC90 for C[C@@H]1CN(c2c(F)c(N)c3c(=O)c(C(=O)O)cn(C4CC4)c3c2F)C[C@H](C)N1 [Sparfloxacin] .
0.78

----------
MIC90 values, listed per item
- Tested on: Staphylococcus aureus (ATCC 33592)
- assay overview: In vitro anti-bacterial activity (MIC90), methicillin-resistant Staphylococcus aureus isolates
- Assay type: cell-based
- conditions used: ATCC33592; methicillin-resistant Staphylococcus aureus (ATCC 33592)
Could you give me the number in µg/mL? Just the number is fine.

Reference set, count: 3
compound: C[C@@H]1CN(c2c(F)c(N)c3c(=O)c(C(=O)O)cn(C4CC4)c3c2F)C[C@H](C)N1 [Sparfloxacin]
numeric readout: 0.1
--
compound: NC1CCCCN(c2c(F)cc3c(=O)c(C(=O)O)cn(C4CC4)c3c2Cl)C1 (stereo not shown) [Compound Having Formula III]
numeric readout: 0.05
--
compound: CC1CCc2c(N3CCC(O)CC3)c(F)cc3c(=O)c(C(=O)O)cn1c23 (stereo not shown) [Nadifloxacin]
numeric readout: 0.05

Which MIC90 reading was recorded for the compound CC1COc2c(N3CCN(C)CC3)c(F)cc3c(=O)c(C(=O)O)cn1c23 (stereo not shown) [Ofloxacin] ?
0.39

----------
- System: Streptococcus pneumoniae (IID 553)
- assay overview: In vitro anti-bacterial activity (MIC90), Gram-positive reference strains
- Format: cell-based
- conditions used: IID553
Measured MIC90 by item
// return numeric value only (unit: µg/mL, not printed)

Guide cases for MIC90, answers given:
molecule: C[C@@H]1CN(c2c(F)c(N)c3c(=O)c(C(=O)O)cn(C4CC4)c3c2F)C[C@H](C)N1 [Sparfloxacin]
units of measure: µg/mL
MIC90: 0.39
--
molecule: CC1CCc2c(N3CCC(O)CC3)c(F)cc3c(=O)c(C(=O)O)cn1c23 (stereo not shown) [Nadifloxacin]
units of measure: µg/mL
MIC90: 0.78
--
molecule: CC1COc2c(N3CCN(C)CC3)c(F)cc3c(=O)c(C(=O)O)cn1c23 (stereo not shown) [Ofloxacin]
units of measure: µg/mL
MIC90: 1.56

Attention now shifts to the item below.
For the record NC1CCCCN(c2c(F)cc3c(=O)c(C(=O)O)cn(C4CC4)c3c2Cl)C1 (stereo not shown) [Compound Having Formula III] , what value of MIC90 is listed for Streptococcus pneumoniae (IID 553)?
0.1
